Hello, the source for this data is patent US7067117, in case you need it.

- Assay target: T1, Duffy Antigen Receptor for Chemokines (DARC) (human, UniProt Q16570 1-336)
- T1 construct: whole, on cells
- T1 sequence (looked up): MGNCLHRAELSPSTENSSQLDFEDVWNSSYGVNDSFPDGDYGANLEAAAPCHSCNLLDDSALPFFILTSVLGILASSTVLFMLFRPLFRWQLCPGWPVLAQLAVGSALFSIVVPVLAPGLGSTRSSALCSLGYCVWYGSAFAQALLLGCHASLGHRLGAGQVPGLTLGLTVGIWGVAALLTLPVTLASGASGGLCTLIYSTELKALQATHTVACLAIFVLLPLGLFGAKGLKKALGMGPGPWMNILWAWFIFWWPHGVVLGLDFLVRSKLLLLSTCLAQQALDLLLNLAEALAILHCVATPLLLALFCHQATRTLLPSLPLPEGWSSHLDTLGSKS
- Test summary: DARC binding
Quantity measured: Kd

binder SYRRITSSKSPKEAV [Ser10 variant of peptide 2(1-15)[MCP-1]] , Kd observed: 20 to 100 µM
